System: Trypanosoma brucei rhodesiense
measurement_protocol: Antitrypanosomal activity against Trypanosoma brucei rhodesiense STIB900
Type: functional, organism-based
measurement_type: log10(IC50) (log10 of the value in nM)

structure_smiles_string=CCCN(CCC)c1ccc2nc3ccc(N4CCCCC4)cc3[o+]c2c1.[Cl-] measurement_type=log10(IC50) quantitative_readout=2.38
structure_smiles_string=CCCN(CCC)c1ccc2nc3ccc(N4CCOCC4)cc3[o+]c2c1.[Cl-] measurement_type=log10(IC50) quantitative_readout=2.94
structure_smiles_string=CCCN(CCC)c1ccc2nc3ccc(N4CCCC4)cc3[o+]c2c1.[Cl-] measurement_type=log10(IC50) quantitative_readout=1.20
structure_smiles_string=CN(C)c1ccc2nc3ccc(N4CCCCC4)cc3[o+]c2c1.[Cl-] measurement_type=log10(IC50) quantitative_readout=2.93
structure_smiles_string=[Cl-].c1cc2nc3ccc(N4CCOCC4)cc3[o+]c2cc1N1CCOCC1 measurement_type=log10(IC50) quantitative_readout=3.94
structure_smiles_string=CCCN(CCC)c1ccc2nc3ccc(N(CCC)CCC)cc3[o+]c2c1.[Cl-] measurement_type=log10(IC50) quantitative_readout=1.36
structure_smiles_string=CN(C)c1ccc2nc3ccc(N4CCCC4)cc3[o+]c2c1.[Cl-] measurement_type=log10(IC50) quantitative_readout=1.96
structure_smiles_string=[Cl-].c1cc2nc3ccc(N4CCCC4)cc3[o+]c2cc1N1CCCC1 measurement_type=log10(IC50) quantitative_readout=2.20
structure_smiles_string=CN(C)c1ccc2nc3ccc(N4CCOCC4)cc3[o+]c2c1.[Cl-] measurement_type=log10(IC50) quantitative_readout=3.41
structure_smiles_string=CCN(CC)c1ccc2nc3ccc(N4CCSCC4)cc3[o+]c2c1.[Cl-] measurement_type=log10(IC50) quantitative_readout=3.21
